- ASSAY EXPLANATION: Quantitative High-Throughput drug screen in 47 multiple myeloma cell lines against the NCATS MIPE library collection: OCIMY1_PLB cell viability assay (AID 1918979); also: nearly all actives have a fitted effect of over 35% in size;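 as to viability: 100% = DMSO-only wells and 0% = cell-free media-only wells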
- DETAILS: OCI-MY1 myeloma viability, CellTiter-Glo ATP, 48 h; series mostly up to 45.8 µM
Results filed as inconclusive are left out. Calls of active or inactive are those of the source. Calls follow the shape of the dose curve; as a rule, active = well fitted cell-killing curve with a large enough effect; inconclusive = small, poorly fitted or top-dose-only effect, or effect the other way; inactive = no such curve, though single readings can be large or run the other way.
Classes used: active, inactive

compound=CN(Cc1cnc2nc(N)nc(N)c2n1)c1ccc(C(=O)N[C@@H](CCC(=O)O)C(=O)O)cc1 label=active
compound=O=C(Nc1ccc([N+](=O)[O-])cc1Cl)c1cc(Cl)ccc1O label=active
compound=CCOC(=O)C(C)(C)Oc1ccc(Cl)cc1 label=inactive
compound=CC[C@@]1(O)C(=O)OCc2c1cc1n(c2=O)Cc2cc3c(CN(C)C)c(O)ccc3nc2-1 label=active
compound=NC(=O)NO label=active
compound="CC(C)NCC(O)COc1ccc(CCOCC2CC2)cc1 (stereo unspecified)" label=inactive

---

- System: CP203
- ASSAY EXPLANATION: qHTS profiling for inhibitors of Plasmodium falciparum proliferation (AID 504749); also: nearly all actives have a fitted effect of over 60% in size
- DETAILS: P. falciparum in erythrocytes, SYBR Green DNA, 72 h; series mostly up to 28.7 µM
Results filed as inconclusive are left out. The source made the active and inactive calls. Calls follow the shape of the dose curve; as a rule, active = well fitted inhibition curve with a large enough effect; inconclusive = small, poorly fitted or top-dose-only effect; inactive = flat fitted curve, though single readings scatter.
Labels: 1 (active), 0 (inactive)

molecule=OCCN1CCN(CCCN2c3ccccc3Sc3ccc(C(F)(F)F)cc32)CC1 label=1
molecule=CCCCc1oc2ccccc2c1C(=O)c1cc(I)c(OCCN(CC)CC)c(I)c1 label=1
molecule=Cn1cnc2c1c(=O)[nH]c(=O)n2C label=0
molecule=CC[C@@]1(O)C(=O)OCc2c1cc1n(c2=O)Cc2cc3c(CN(C)C)c(O)ccc3nc2-1 label=1
molecule="CC(C)NCC(O)COc1ccc(CCOCC2CC2)cc1 (stereo not given)" label=0
molecule=Nc1nc2c(ncn2COC(CO)CO)c(=O)[nH]1 label=0
molecule=CN1C(C(=O)Nc2ccccn2)=C(O)c2ccccc2S1(=O)=O label=0
molecule=COc1cc2c(c(OC)c1OC)-c1ccc(OC)c(=O)cc1[C@@H](NC(C)=O)CC2 label=0
molecule=Cc1cc(C(C)(C)C)cc(C)c1CC1=NCCN1 label=0
molecule=COc1ccc2[nH]cc(CCNC(C)=O)c2c1 label=0

---

- ASSAY EXPLANATION: qHTS for differential inhibitors of proliferation of Plasmodium falciparum line 3D7 (AID 1876)
- DETAILS: P. falciparum 3D7 proliferation inhibition; series mostly up to 28.7 µM
Records with an inconclusive call do not appear. The source made the active and inactive calls. Calls come from the whole dose curve; as a rule, active = well fitted curve in the direction sought with a large enough effect; inconclusive = small, poorly fitted or top-dose-only effect, or another doubt; inactive = no such curve, though single readings can be large or run the other way.
Outcomes: active, inactive

compound=CCC1(c2ccccc2)C(=O)NCNC1=O label=inactive
compound=COc1cc2nc(N3CCN(C(=O)c4ccco4)CC3)nc(N)c2cc1OC label=active
compound=CN(C)CCC=C1c2ccccc2C=Cc2ccccc21 label=active
compound=Cn1cnc2c1c(=O)[nH]c(=O)n2C label=inactive
compound=Cc1cnc(C(=O)NCCc2ccc(S(=O)(=O)NC(=O)NC3CCCCC3)cc2)cn1 label=inactive
compound=NC(=O)NO label=inactive
compound="COc1ccc(C2CNC(=O)C2)cc1OC1CCCC1 (configuration not stated)" label=inactive

---

- ASSAY EXPLANATION: Quantitative High-Throughput drug screen in 47 multiple myeloma cell lines against the NCATS MIPE library collection: Karpas25_ECACC cell viability assay (AID 1918968; also: potency is read from the fitted curve at half-maximal effect; nearly all actives have a fitted effect of over 35% in size)
- DETAILS: Karpas25 myeloma viability, CellTiter-Glo ATP, 48 h; series mostly up to 45.8 µM
Results filed as inconclusive are left out. Calls of active or inactive are those of the source. The call rests on the fitted dose curve; in most records, active means well fitted cell-killing curve with a large enough effect; inconclusive means small, poorly fitted or top-dose-only effect, or effect the other way; inactive means no such curve, though single readings can be large or run the other way.
QUANTITY NAME: Potency

compound_smiles=O=C1Cc2cc(CCN3CCN(c4nsc5ccccc45)CC3)c(Cl)cc2N1 quantity_name=Potency result="18.7 µM (active)"
compound_smiles=CC12CC3CC(C)(C1)CC(N)(C3)C2 quantity_name=Potency result="20.9 µM (active)"
compound_smiles=COc1ccc2c(c1)c(CC(=O)O)c(C)n2C(=O)c1ccc(Cl)cc1 quantity_name=Potency result="20.9 µM (active)"

These measurements were taken from PubChem BioAssay (NCATS).
